internalization EC50 (pHAb dye), HEK-293/H IL-13RA2 cells by entry:
# EXPERIMENTAL_TARGET: T1, human interleukin 13 receptor subunit alpha 2 (IL-13RA2) (human, UniProt Q14627 27-380)
# T1 sequence (looked up): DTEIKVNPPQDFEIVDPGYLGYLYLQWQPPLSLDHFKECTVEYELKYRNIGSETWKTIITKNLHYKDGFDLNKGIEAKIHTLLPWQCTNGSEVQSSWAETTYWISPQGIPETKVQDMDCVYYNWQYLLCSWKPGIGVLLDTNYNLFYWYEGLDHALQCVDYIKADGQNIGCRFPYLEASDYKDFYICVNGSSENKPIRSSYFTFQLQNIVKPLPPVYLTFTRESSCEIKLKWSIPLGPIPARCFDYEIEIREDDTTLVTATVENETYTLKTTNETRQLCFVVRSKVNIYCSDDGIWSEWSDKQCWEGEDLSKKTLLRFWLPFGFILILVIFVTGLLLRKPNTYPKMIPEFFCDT
# EXPERIMENT_DESCRIPTION: cell-based or functional assay
PARAMETER: internalization EC50 (pHAb dye), HEK-293/H IL-13RA2 cells

xi24G6D5 hIgG1 (antibody, V domains shown) VH: QVQLQQSGPELVKPGTSVKMSCKASGYTFTSNYIHWVKQRPGQGLEWIGWIYPGDGSIKYNEKFKGKTTLTADKSSSTVYMLLSSLTSEDSAIYFCAVLRRLDYWGQGTTLTVSS VL: DIVLTQSPATLSVTPGDSVSLSCRASQSISNNLHWYQQKSHESPRLLIKYASQSISGIPSRFSGSGSGTDFTLSINSVETEDFGMYFCQQSNSWPLTFGAGTKLELK : 2.76 nM
xi62A8D8 hIgG1 (antibody, V domains shown) VH: EVKLVESGGGLVKPGGSLKLSCAASGFTFSSYGMSWVRQTPEKRLEWVATISGGGSYTYYPDSVKGRFTISRDNAKNNLYLQMSSLRSEDTALYYCARRDLRSAMDYWGQGTSVTVSS VL: DIVMTQSQKFMSTSVGDRVSVTCKASQNVDINVAWYQQKPGQSPKALIYSASYRYSGVPDRFTGSGSGTDFTLTISNVQSEDLAEFFCQQYNNYPLTFGGGTKLEIK : 1.88 nM
xi74B5E4 hIgG1 (antibody, V domains shown) VH: EVKLVESGGGLVKPGGSLRLSCAASGFTFSTYGMSWVRQTPEKRLEWVATISGGGSYTYYPDSVKGRFTISRDNAKNNLYLQMSSLRSEDTALYYCARRDLRSAMDYWGQGTSVTVSS VL: DIVMTQSQKFMSTSVGDRVSVTCKASQNVDINVAWYQQKPGQSPKALIYSASYRYSGVPDRFTGSGSGTDFTLTISNVQSEDLAEYFCQQYNTYPLTFGGGTKLEIK : 1.31 nM
xi73A11E2 hIgG1 (antibody, V domains shown) VH: EVKLVESGGGLVKPGGSLKLSCAASGFTFSSYGMSWVRQTPEKRLEWVATISGGGSYTYYPDSVKGRFTISRDNARNNLYLQMNSLRSEDTALYYCARRDLRSAMDYWGQGTSVTVSS VL: DIVMTQSQKFMSTSVGDRVSVTCKASQNVDINVAWYQQKPGQSPKALIYSASYRYSGVPDRFTGSGSGTDFTLTISNVQSEDLAEFFCQQYNSYPLTFGGGTKLEIK : 1.98 nM
xi34A5G9 hIgG1 (antibody, V domains shown) VH: EVHLQQSGPELVKPGASVKISCKTSGYTFTEYTMHWVKQSHGKSLEWIGRINPNNGIAEYKQTFKDKATLAVDKSSSTAYMEFRSLTSEDSAVYYCARGEGYGYWFAYWGQGTLVTVSA VL: DIQMTQSPASLSASVGETVTITCRTSDNIYSYLAWYQQRQGKSPQLLVSNARTLAEGVPSRFSGSGSGTQFSLKINSLQPEDFGIYYCQHHSGTPFTFGSGTNLEIE : 1.78 nM
